Where do the numbers come from? From paper PMC8222333.

Listed here are binders together with their documented binding signal.
# Measurement Target: d-enCas12a-Ultra (Acidaminococcus sp., UniProt U2UMQ6 1-1307, E174R;S542R;K548R;M537R;F870L;D908A;E993A;D1235A)
# Assay Name: Spec-seq (native PAGE EMSA with sequencing of bound and unbound); 25 mM Tris-HCl pH 7.4, 150 mM KCl, 5 mM MgCl2, 10% glycerol, 1 mM DTT, 40 ng/uL salmon sperm DNA; 400 nM Cas12a, 480 nM crRNA, 50 nM library, 37 C 1 h; native PAGE at room temperature; high values mean tight binding;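 note: relative affinity from the bound to unbound sequence frequency ratio in Spec-seq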
# Test Parameters: protein: recombinant
Unit lnKA implied. Number only.

{"columns": ["Binder", "binding signal (lnKA)"],
 "data": [
  ["ATGC (dsDNA) DNA 1: GCTATCTAGTGCTCAGTACGCACTGATGCAGGAAACTTCTGGCAGGACCAGGTCATGAGATCGGAAGAGCACACGTCTGAACTCCAGTCA DNA 2: TGACTGGAGTTCAGACGTGTGCTCTTCCGATCTCATGACCTGGTCCTGCCAGAAGTTTCCTGCATCAGTGCGTACTGAGCACTAGATAGC RNA: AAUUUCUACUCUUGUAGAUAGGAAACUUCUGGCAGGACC", -2.52]
]}

Okay, next one:
Noted for TGTG (dsDNA) DNA 1: GCTATCTAGTGCTCAGTACGCACTGTGTGAGGAAACTTCTGGCAGGACCAGGTCATGAGATCGGAAGAGCACACGTCTGAACTCCAGTCA DNA 2: TGACTGGAGTTCAGACGTGTGCTCTTCCGATCTCATGACCTGGTCCTGCCAGAAGTTTCCTCACACAGTGCGTACTGAGCACTAGATAGC RNA: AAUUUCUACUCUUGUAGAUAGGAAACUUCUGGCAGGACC : its binding signal reads -0.568
